Attribution: patent US10428140B2

Molecular target: T1, human EphB6 (Homo sapiens, UniProt O15197)
T1 construct: a protein of the extracellular region of each human Eph receptor fused with the SEAP protein and the His tag; made in house; host or cells: Expi293F cells
T1 sequence (O15197 32-594 limits assumed): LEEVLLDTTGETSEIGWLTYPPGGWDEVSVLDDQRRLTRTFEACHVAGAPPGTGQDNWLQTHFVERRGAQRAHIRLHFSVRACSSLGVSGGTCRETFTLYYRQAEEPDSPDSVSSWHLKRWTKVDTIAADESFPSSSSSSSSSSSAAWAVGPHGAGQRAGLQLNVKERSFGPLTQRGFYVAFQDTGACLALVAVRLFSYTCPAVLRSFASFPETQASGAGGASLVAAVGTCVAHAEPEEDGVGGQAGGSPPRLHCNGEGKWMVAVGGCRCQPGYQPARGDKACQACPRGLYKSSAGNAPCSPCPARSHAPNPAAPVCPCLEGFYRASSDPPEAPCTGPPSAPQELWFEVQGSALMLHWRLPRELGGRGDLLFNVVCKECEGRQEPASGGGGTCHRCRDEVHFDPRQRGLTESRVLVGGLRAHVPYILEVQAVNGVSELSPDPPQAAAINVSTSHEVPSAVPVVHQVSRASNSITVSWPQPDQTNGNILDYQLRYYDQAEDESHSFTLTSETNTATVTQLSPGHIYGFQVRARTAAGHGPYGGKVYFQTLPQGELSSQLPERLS
Test: Selectivity ELISA of humanized antibodies for human Eph receptor
Assay type: binding
Details: coated protein 1 nM
Some molecules, each annotated with its measured hEphB6-SEAP-: absorbance at 450 nm, percentage with respect to hEphA4-SEAP-His as 100%.
Dear colleague, please return just the value in %, with no unit written.

157 (antibody, V domains shown, synthetic humanized antibody heavy chain variable region sequence; synthetic humanized antibody light chain variable region sequence) VH: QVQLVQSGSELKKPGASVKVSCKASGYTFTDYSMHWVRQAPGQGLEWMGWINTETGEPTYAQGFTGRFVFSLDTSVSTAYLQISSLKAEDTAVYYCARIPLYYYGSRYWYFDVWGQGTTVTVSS VL: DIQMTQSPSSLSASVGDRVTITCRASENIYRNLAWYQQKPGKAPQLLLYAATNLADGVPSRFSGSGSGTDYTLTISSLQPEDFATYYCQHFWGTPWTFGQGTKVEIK
6.3

Q: Fill blank: measured hEphB6-SEAP-: absorbance at 450 nm, percentage with respect to hEphA4-SEAP-His as 100% of the molecule 67 (antibody, V domains shown, synthetic humanized antibody heavy chain variable region sequence; synthetic humanized antibody light chain variable region sequence) VH: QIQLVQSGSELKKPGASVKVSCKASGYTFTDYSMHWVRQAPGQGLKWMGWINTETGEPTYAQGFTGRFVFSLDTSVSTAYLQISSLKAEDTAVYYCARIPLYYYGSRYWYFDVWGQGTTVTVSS VL: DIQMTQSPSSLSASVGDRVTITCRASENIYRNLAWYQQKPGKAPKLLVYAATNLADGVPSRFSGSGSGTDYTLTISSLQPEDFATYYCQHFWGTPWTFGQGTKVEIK is ____.
A: 4.7
